Biological target: Hexose transporter 1 (Plasmodium falciparum)
Test: ST_JUDE_LEISH: Cytotoxicity at 2uM final concentration against transgenic Leishmania Mexicana promastigotes LmPfHT that are glucose transport deficient and complemented with the Plasmodium falciparum hexose transporter. Activity is measured by DNA content using SYBR green in vitro
Assay type: functional
Quick reference for inhibition among some molecules
Write down the value, and be sure its unit follows.

{"columns": ["molecule", "inhibition"],
 "data": [
  ["COc1ccc2nc(C)cc(Nc3ccc(Oc4ccc(Cl)c5ccccc45)c(Cl)c3)c2c1", "10.2%"]
]}

Entry `CN1CCN(c2cccc(NC(=O)c3ccc(-c4ccc(C#N)cc4)cc3)c2)CC1` ; inhibition = 3.32%

Entry `O=C(Nc1ccc(-c2nc3ccccc3[nH]2)cc1)c1ccc([N+](=O)[O-])s1` ; inhibition = 7.89%
